test system: Culex quinquefasciatus; assay: Insecticide effectiveness in the vapour phase against mosquitoes, impregnated paper unit in 20 m^3 room (Example 9); assay type: in vivo; conditions: 5 mg/unit; insect exposure after 2 hours; 24th hour from start of test
MEASURED ATTRIBUTE: % mortality 24 h (%)
Provide the reading as a plain figure in %.

Below: 4 compounds and their reported % mortality 24 h.
Query: Looking for the measured % mortality 24 h of CC1(C)[C@H](C=C(Cl)Cl)[C@H]1C(=O)OCc1c(F)c(F)cc(F)c1F [Transfluthrin, transfluthrin] , can you help?
Response: 100

Query: Looking for the measured % mortality 24 h of C=CC=C[C@@H]1[C@@H](C(=O)OCc2c(F)c(F)cc(F)c2F)C1(C)C (mixture of isomers) , can you help?
Response: 100

Query: Looking for the measured % mortality 24 h of C=CC=C[C@@H]1[C@@H](C(=O)OCc2c(F)c(F)c(COC)c(F)c2F)C1(C)C (mixture of isomers) , can you help?
Response: 70

Query: Looking for the measured % mortality 24 h of C=CC=C[C@@H]1[C@@H](C(=O)OCc2coc(Cc3ccccc3)c2)C1(C)C (mixture of isomers) , can you help?
Response: 35

Kindly review the next compound as well.
Query: Looking for the measured % mortality 24 h of CC=CC1C(C(=O)OCc2c(F)c(F)c(COC)c(F)c2F)C1(C)C (centres unmarked) , can you help?
Response: 100

The measurements presented in this section are drawn from patent US9247750B2.
